test: soluble on expression in E. coli; label from the status in PepcDB or PDB records
Property Name: soluble on expression in E. coli

Consider the reported soluble on expression in E. coli for these sequences:
| Sequence Record | Property Name | Observed Value |
| --- | --- | --- |
| MDCVVGRKNSAAVLLVLSERKTREEIILKLPDKTQESVIKAIDELERKYRRKFREKFKTITVDNGTEFLDYRGIEKSKTEPGKDRTKVYYAHPYSSWERGTNENINKLIRRFIPKGTDISKVSKAKIKSIERWINEYPRRMFGYRSAIEMAV | soluble on expression in E. coli | soluble |
| MGSDKIHHHHHHVVVMSKVLLNIGCADVDKPGYINVDARKTKVTHLVSNAWDLDCFEENSVHEIYSRHMLEHLNPEYAKLALQKWFYILEPEGKLVVIVPDIEFHARQLLGVSRSSFGDQMEHAFAGFWGWREKERGGSDFDAHQWGYTVATLENEIGAVGFERIERVVEGVDSEPWHLQMTARKPMTSLCCPMDFRGPFP | soluble on expression in E. coli | not soluble |
| MRIALLVKQARLQQGVRQIDLAERLGITLRTFRRIEAGSADGVSLRDFMLVVWGLGVSERLFQGLRDDESFSVEQLEAADRKRVRLPRNRPEDF | soluble on expression in E. coli | not soluble |
| MGSDKIHHHHHHVALAIPQIHAHEHSDEQLMQRYAQGDSQAFEQLYLKHKGALYRYFVRQLGDKQLAEDLYQETWGRVIRAAVNYQVSAKFSTWLYRIAHNLLIDHVRAVKPVDFIASDTDVTGLDTFEGCDQDKPDIHWQEAQKSLLLKTCISLLPQVQKEAFILNIEMGFTAAMISDIAGVTLEATKSRIRYAYQSLKECVNAKWQEAGHE | soluble on expression in E. coli | not soluble |
| MGSDKIHHHHHHMTRVLKVDPLFPDEKVLKEAAELLRNGEVIIFPTETVYGIGADAYNEEACKKIFKLKERPADNPLIVHIHSFKQLEEIAEGYEPHLDFLKKFWPGPLTVIFRKKSEKIPPVVTADLPTVAVRMPAHPVALKLIELFGHPIAAPSANISGRPSATNVKHVIEDFMGKVKLIIDAGDTPFGLESTIVDLTKEKPVLLRPGPVEVERLKELFPELVVPDFVRKGNFKGRPLAPGMKYRHYAPLKPLILVEDLTKMEEVLKKYPDHVVICVEERKELYDDRIVVGSLKNPYSIAQNIFSALREAEKMGKEYIIVEGFEERGILFAVMNRLRKAATEIVR | soluble on expression in E. coli | not soluble |

So what's the measured soluble on expression in E. coli for this one? MSLKAIGFEQPFKLSDGNLFKTFNLDIPEPKVHEILVKIQSISVNPVDTKQRLMDVSKAPRVLGFDAIGVVESVGNEVTMFNQGDIVYYSGSPDQNGSNAEYQLINERLVAKAPKNISAEQAVSLPLTGITAYETLFDVFGISRNRNENEGKTLLIINGAGGVGSIATQIAKAYGLRVITTASRNETIEWTKKMGADIVLNHKESLLNQFKTQGIELVDYVFCTFNTDMYYDDMIQLVKPRGHIATIVAFENDQDLNALKPKSLSFSHEFMFARPLNQTDDMIKHHEYLEDITNKVEQNIYQPTTTKVIEGLTTENIYQAHQILESNTMIGKLVINLNEGHHHHHH
soluble
